Would you mind telling me the reported IC50 of each entry?
- EXPERIMENTAL SYSTEM: 12-lipoxygenase (Rattus norvegicus)
- Construct: The platelets were then sonicated at 4° C. and centrifuged at 100,000×g for 30 minutes to obtain a supernatant as a 12-lipoxygenase enzyme solution; from tissue; host or cells: Sprague Dawley rat platelets (from aortic blood), sonicated, 100,000 x g supernatant
- Sequence (F1LQ70 whole entry): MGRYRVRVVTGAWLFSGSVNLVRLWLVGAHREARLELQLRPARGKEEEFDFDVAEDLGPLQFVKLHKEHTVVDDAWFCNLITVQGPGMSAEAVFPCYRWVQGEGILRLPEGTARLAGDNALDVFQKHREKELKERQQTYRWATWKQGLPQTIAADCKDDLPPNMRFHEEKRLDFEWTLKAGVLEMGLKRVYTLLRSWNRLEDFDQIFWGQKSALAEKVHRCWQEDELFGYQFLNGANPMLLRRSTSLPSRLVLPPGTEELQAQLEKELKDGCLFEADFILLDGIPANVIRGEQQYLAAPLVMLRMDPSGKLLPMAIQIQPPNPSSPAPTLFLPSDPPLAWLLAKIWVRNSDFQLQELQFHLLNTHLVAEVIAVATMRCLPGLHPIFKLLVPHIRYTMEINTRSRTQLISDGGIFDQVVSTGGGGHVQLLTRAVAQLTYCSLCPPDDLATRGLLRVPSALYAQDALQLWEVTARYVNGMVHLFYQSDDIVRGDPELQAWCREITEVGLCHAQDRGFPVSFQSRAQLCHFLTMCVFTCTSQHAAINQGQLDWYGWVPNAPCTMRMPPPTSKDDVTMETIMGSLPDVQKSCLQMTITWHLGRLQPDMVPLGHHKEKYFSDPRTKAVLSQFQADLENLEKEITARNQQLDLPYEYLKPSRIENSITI
- METHOD NOTES: 12-lipoxygenase inhibition assay (rat platelet supernatant, arachidonic acid, HPLC of 12-HETE)
- Assay type: biochemical, Sprague Dawley male rat (platelets)
- CONDITIONS USED: Test Example 2, Table 2; read-out: IC50 value of 12-lipoxygenase
Answers are plain numbers, in nM.

Examples from the recorded data:
O=c1oc2cc(O)c(O)cc2cc1-c1cc(Br)cs1 [Example 34]; 5.2
O=c1oc2c(O)c(O)ccc2cc1-c1ccc(Cl)cc1 [Example 4, 3-(4-chlorophenyl)-7,8-dihydroxycoumarin]; 7.6

Fill in IC50 for each of the 2 compounds listed.
1. CCc1ccc(-c2cc3ccc(O)c(O)c3oc2=O)cc1 [Example 19]
2. COc1ccc(-c2cc3ccc(O)c(O)c3oc2=O)cc1 [Example 27]

1. 14
2. 27

Fill in IC50 for each of the 2 compounds listed.
1. O=c1oc2cc(O)c(O)cc2cc1-c1ccc(C(F)(F)F)cc1 [Example 14]
2. O=c1oc2c(O)c(O)ccc2cc1-c1cc(Br)cs1 [Example 33]

[13, 12]

Fill in IC50 for each of the 3 compounds listed.
1. O=c1oc2cc(O)c(O)cc2cc1-c1ccc(I)cc1 [Example 10, 3-(4-iodophenyl)-6,7-dihydroxycoumarin]
2. O=c1oc2cc(O)c(O)cc2cc1-c1ccc(Br)cc1 [Example 1]
3. O=c1oc2cc(O)c(O)cc2cc1-c1ccc(F)cc1 [Example 7]

[5.8, 4.4, 8]
